All values here come from ChEMBL document CHEMBL5705903.

Biological target: UniProt P27338
Sequence (P27338 whole entry): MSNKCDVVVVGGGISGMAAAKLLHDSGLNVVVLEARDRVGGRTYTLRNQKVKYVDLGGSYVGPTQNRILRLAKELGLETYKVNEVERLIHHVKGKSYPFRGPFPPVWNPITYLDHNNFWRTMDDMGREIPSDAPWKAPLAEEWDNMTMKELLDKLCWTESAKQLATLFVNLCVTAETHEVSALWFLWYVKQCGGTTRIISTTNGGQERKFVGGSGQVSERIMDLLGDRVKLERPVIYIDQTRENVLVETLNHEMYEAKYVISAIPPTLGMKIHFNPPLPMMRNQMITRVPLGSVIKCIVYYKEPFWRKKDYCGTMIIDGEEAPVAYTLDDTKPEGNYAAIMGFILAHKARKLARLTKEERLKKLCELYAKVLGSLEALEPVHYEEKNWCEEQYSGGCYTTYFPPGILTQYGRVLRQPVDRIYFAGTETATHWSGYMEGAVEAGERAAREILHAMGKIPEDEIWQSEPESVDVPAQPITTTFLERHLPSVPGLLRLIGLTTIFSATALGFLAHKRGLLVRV
Endpoint: IC50 (µM)
Numeric only. Scale: µM

Ask | Fetch value of IC50 on UniProt P27338 for O=C(O)c1ccc(CN2CCC(CN[C@@H]3C[C@H]3c3ccccc3)CC2)cc1 .
Reply | 20

###

Target: Muscarinic acetylcholine receptor M1 (Homo sapiens)
Sequence (P11229 whole entry): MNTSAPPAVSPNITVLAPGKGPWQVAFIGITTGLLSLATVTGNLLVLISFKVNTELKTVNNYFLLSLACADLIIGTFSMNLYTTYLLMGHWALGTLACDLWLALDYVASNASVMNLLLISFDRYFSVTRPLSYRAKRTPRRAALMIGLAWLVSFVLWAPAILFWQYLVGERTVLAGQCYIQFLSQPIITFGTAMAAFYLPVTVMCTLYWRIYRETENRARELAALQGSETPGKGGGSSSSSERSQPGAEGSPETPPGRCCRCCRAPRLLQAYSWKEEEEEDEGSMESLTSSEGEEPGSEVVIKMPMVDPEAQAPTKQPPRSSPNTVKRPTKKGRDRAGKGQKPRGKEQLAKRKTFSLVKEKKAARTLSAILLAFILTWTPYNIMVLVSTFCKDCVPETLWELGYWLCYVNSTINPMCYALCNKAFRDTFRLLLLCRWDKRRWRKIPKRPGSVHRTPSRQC
Experiment: Agonist activity at Muscarinic M1 receptor (unknown origin)
Type: functional
pEC50: −log10 of the molar value.
Endpoint: pEC50

- Smiles record: "O=C(O)c1ccc(CN2CCC(CN[C@@H]3C[C@H]3c3ccccc3)CC2)cc1"
  pEC50: "< 4.80"

Alright, here's another compound for you.
Ask | Report pEC50 for c1ccc([C@@H]2C[C@H]2NC2CCNCC2)cc1
Reply | < 4.52

###

target: Cannabinoid receptor 2 (Homo sapiens); test: Agonist activity at Cannabinoid CB2 receptor (unknown origin)
Sequence (P34972 whole entry): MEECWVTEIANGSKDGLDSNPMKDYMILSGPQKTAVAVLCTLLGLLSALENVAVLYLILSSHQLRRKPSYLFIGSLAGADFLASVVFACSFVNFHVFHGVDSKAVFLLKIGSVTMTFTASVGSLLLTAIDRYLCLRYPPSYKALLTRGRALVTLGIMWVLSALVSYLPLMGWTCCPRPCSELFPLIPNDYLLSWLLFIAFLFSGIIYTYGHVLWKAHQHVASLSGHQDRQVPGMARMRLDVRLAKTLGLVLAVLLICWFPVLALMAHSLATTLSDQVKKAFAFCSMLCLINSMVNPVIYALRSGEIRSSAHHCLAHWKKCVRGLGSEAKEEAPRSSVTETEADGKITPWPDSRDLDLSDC
Endpoint: EC50

- Smiles record: "c1ccc([C@@H]2C[C@H]2NC2CCNCC2)cc1"
  Endpoint: "EC50"
  Obs value: "> 100 µM"

For the next question, use this compound.
Ask | Given the compound O=C(O)c1ccc(CN2CCC(CN[C@@H]3C[C@H]3c3ccccc3)CC2)cc1 , write its reported EC50.
Reply | > 100 µM

###

pIC50: −log10 of the molar value.
Let's go through some recorded pIC50 values for Voltage-gated inwardly rectifying potassium channel KCNH2 (Homo sapiens, UniProt Q12809) together.

- Smiles record: "O=C(O)c1ccc(CN2CCC(CN[C@@H]3C[C@H]3c3ccccc3)CC2)cc1"
  System name: "Voltage-gated inwardly rectifying potassium channel KCNH2 (Homo sapiens, UniProt Q12809)"
  Obs value: "< 4.60"

Please find the next molecule below.
Ask | Item c1ccc([C@@H]2C[C@H]2NC2CCNCC2)cc1 : provide pIC50
Reply | < 4.52

###

target: 5-hydroxytryptamine receptor 2A (Homo sapiens, UniProt P28223); assay: Agonist activity at 5-HT2A receptor (unknown origin); assay type: functional
Sequence (P28223 whole entry): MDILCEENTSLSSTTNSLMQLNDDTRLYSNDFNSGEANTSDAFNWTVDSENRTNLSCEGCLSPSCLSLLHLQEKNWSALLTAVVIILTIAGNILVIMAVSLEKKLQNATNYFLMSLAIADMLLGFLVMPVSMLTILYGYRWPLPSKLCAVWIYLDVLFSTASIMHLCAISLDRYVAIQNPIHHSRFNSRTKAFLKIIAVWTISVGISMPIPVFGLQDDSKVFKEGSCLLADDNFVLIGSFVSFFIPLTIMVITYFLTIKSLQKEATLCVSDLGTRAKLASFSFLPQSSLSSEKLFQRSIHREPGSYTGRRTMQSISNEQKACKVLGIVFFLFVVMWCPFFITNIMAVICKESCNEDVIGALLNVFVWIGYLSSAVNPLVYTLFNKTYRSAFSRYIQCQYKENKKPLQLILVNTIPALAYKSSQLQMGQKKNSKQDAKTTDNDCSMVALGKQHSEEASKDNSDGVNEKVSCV
EC50 reference

- Molecule: "c1ccc([C@@H]2C[C@H]2NC2CCNCC2)cc1"
  Endpoint: "EC50"
  Obs value: "> 25 µM"

// switching to the query molecule
Ask | Specify measured EC50 for O=C(O)c1ccc(CN2CCC(CN[C@@H]3C[C@H]3c3ccccc3)CC2)cc1 [GSK2879552] .
Reply | > 40 µM

###

experiment: Oral bioavailability in mouse at 5 mg/kg by HPLC/MS/MS analysis; type: ADME, organism-based; settings: in vivo
Endpoint: bioavailability (%)
All answers are understood in %, so give the number only.

Ask | Hello, please tell me recorded bioavailability for this one: O=C(O)c1ccc(CN2CCC(CN[C@@H]3C[C@H]3c3ccccc3)CC2)cc1 [GSK2879552]
Reply | 59.2

###

target: UniProtKB O75469; test: Activation of PXR (unknown origin)
Sequence (O75469 whole entry): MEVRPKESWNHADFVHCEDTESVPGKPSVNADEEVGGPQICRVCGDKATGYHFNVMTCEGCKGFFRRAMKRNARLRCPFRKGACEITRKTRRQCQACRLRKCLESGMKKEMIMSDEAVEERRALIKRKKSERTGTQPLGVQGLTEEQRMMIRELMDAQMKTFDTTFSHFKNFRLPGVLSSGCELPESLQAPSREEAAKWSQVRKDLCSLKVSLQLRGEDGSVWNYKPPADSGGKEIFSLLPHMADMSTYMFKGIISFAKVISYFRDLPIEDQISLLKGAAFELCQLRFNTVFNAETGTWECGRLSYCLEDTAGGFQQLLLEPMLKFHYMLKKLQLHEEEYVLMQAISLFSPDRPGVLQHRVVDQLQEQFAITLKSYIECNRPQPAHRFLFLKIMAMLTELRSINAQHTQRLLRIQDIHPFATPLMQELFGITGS
Endpoint: EC50

- Smiles record: "c1ccc([C@@H]2C[C@H]2NC2CCNCC2)cc1"
  EC50: "> 30 µM"

Alright, here's another molecule for you.
Ask | Lab note: record EC50 of O=C(O)c1ccc(CN2CCC(CN[C@@H]3C[C@H]3c3ccccc3)CC2)cc1 tested on UniProtKB O75469.
Reply | > 30 µM

###

assay: AUC (0 to infinity) in mouse at 5.5 mg/kg, ip by HPLC/MS/MS analysis; type: ADME, organism-based; conditions: in vivo
Endpoint: AUC(0-inf)

Ask | Please look at this compound and report its AUC(0-inf): c1ccc([C@@H]2C[C@H]2NC2CCNCC2)cc1
Reply | 938 ng·h/mL

###

assay: Cmax in mouse at 5.5 mg/kg, ip by HPLC/MS/MS analysis; format: ADME, organism-based; conditions: in vivo
Endpoint: Cmax (ng/mL)
The reply should contain only the number, in ng/mL.

Ask | For the compound c1ccc([C@@H]2C[C@H]2NC2CCNCC2)cc1 , give its measured Cmax value.
Reply | 466

###

experiment: AUC (0 to infinity) in mouse blood at 5 mg/kg, po by HPLC/MS/MS analysis; assay type: ADME, organism-based
Endpoint: AUC(0-inf) (ng·h/mL)
Number only, in ng·h/mL; omit the unit.

Ask | Answer with reported AUC(0-inf) of O=C(O)c1ccc(CN2CCC(CN[C@@H]3C[C@H]3c3ccccc3)CC2)cc1
Reply | 903

###

Reported pIC50 values follow for various compounds
test: Inhibition of AChR receptor (unknown origin); parameters: species or system Homo sapiens
pIC50: −log10 of the molar value.

- Smiles record: "c1ccc([C@@H]2C[C@H]2NC2CCNCC2)cc1"
  Obs value: "< 4.30"

Attention now turns to another entry.
Ask | Give recorded pIC50. O=C(O)c1ccc(CN2CCC(CN[C@@H]3C[C@H]3c3ccccc3)CC2)cc1
Reply | < 4.30

###

Here the recorded pIC50 is given for each entry.
molecular target: Voltage-gated potassium channel, IKs; KCNQ1(Kv7.1)/KCNE1(MinK) (Homo sapiens, UniProt P15382+P51787); experiment: Inhibition of KCNQ1/minK (unknown origin)
pIC50: −log10 of the molar value.

- Compound: "O=C(O)c1ccc(CN2CCC(CN[C@@H]3C[C@H]3c3ccccc3)CC2)cc1 [GSK2879552]"
  Endpoint: "pIC50"
  Obs value: "< 4.60"

Turning now to a further compound:
Ask | // Input: c1ccc([C@@H]2C[C@H]2NC2CCNCC2)cc1 . Output its pIC50 only.
Reply | < 4.60

###

biological target: Muscarinic acetylcholine receptor M2 (Homo sapiens, UniProt P08172); assay: Antagonist activity at Muscarinic M2 receptor (unknown origin); format: functional
Sequence (P08172 whole entry): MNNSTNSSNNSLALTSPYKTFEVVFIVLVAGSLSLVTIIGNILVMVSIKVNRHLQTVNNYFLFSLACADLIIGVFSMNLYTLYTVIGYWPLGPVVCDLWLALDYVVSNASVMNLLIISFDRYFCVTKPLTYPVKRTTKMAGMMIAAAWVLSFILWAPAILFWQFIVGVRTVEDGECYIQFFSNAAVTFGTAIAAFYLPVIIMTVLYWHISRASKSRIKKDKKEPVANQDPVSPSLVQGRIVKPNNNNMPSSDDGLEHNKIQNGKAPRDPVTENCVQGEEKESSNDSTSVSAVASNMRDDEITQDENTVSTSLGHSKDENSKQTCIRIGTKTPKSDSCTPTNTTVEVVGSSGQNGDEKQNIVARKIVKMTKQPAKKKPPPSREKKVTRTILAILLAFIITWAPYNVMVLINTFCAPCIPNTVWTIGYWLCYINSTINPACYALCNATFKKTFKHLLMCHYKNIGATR
Endpoint: EC50

- Smiles record: "c1ccc([C@@H]2C[C@H]2NC2CCNCC2)cc1"
  System name: "Muscarinic acetylcholine receptor M2 (Homo sapiens, UniProt P08172)"
  EC50: "> 30 µM"

Now let's try a different one.
Ask | Tell me EC50 of O=C(O)c1ccc(CN2CCC(CN[C@@H]3C[C@H]3c3ccccc3)CC2)cc1 when tested on Muscarinic acetylcholine receptor M2 (Homo sapiens, UniProt P08172).
Reply | > 16 µM
